Reference source for all entries: ChEMBL document CHEMBL5058577

# Test system: Fibroblast
# measurement.notes: Multiplex assay against human fibroblast
# Assay type: toxicity, cell-based
# measurement.parameters: 24 h, 1 µM, compound concentration 1 uM, replicate 1
// Population Pyknosed Nuclei (%) lookup, one value per entry
Give the value in % but do not write % after it.

Take a look at these entries with their results.
molecule: Cc1cc(-c2ccc3c(c2)CC[C@H]3N2CC3(CCN(C(=O)Cc4cn5cc(C)sc5n4)CC3)C2)ncn1
experimental.result: 7
//
molecule: CN(C)C/C=C/C(=O)Nc1ccc(C(=O)N2CCCC(Nc3ncc(Cl)c(-c4c[nH]c5ccccc45)n3)C2)cc1 (stereo not drawn)
experimental.result: 26
//
molecule: C=CCN1C[C@H](C(=O)N(CCCN(C)C)C(=O)NCC)C[C@@H]2c3cccc4[nH]cc(c34)C[C@H]21
experimental.result: 10
//
molecule: CCCCCCNC(=O)Nc1ccc(S(=O)(=O)Nc2ccc(CCNC[C@H](O)COc3ccc(O)cc3)cc2)cc1
experimental.result: 9
//
molecule: CCCCC[C@H](O)/C=C/[C@H]1[C@H](O)CC(=O)[C@@H]1CCCCCCC(=O)O
experimental.result: 10

Request: So what does the record say about Population Pyknosed Nuclei (%) for CN1CCN(c2ccc(Nc3c4ccccc4nc4ccccc34)cc2)CC1.Cl.Cl.O ?
Response: 12

Request: So what does the record say about Population Pyknosed Nuclei (%) for C[C@H](NC(=O)CNC(=O)c1cccc(Cl)c1)c1ccccc1 ?
Response: 17

Request: So what does the record say about Population Pyknosed Nuclei (%) for COc1cc2nc(N3CCN(C(=O)c4ccco4)CC3)nc(N)c2cc1OC.Cl [PRAZOSIN HYDROCHLORIDE] ?
Response: 15

---

# System: Fibroblast
# measurement.notes: Multiplex assay against human fibroblast
# Assay type: toxicity, cell-based
# measurement.parameters: 24 h, 1 µM, compound concentration 1 uM, replicate 2
// Population Apoptotic (%) lookup, one value per entry
Give the value in % but do not write % after it.

molecule: O=C(Nc1cc(-c2ccccc2)nn1-c1ccccc1F)c1ccc([N+](=O)[O-])cc1
system.name: Fibroblast
Population Apoptotic (%): 50
//
molecule: S=C(NCCCc1c[nH]cn1)NCCCN(Cc1ccc(Cl)c(Cl)c1)c1ccc(Br)cn1
system.name: Fibroblast
Population Apoptotic (%): 23
//
molecule: CC(C)C[C@H](CO)Nc1nc(S[C@@H](C)c2ccccc2)nc2nc(N)sc12
system.name: Fibroblast
Population Apoptotic (%): 31
//
molecule: CN1C[C@H](C(=O)N[C@]2(C)O[C@@]3(O)[C@@H]4CCCN4C(=O)[C@H](Cc4ccccc4)N3C2=O)C[C@@H]2c3cccc4[nH]cc(c34)C[C@H]21.CS(=O)(=O)O [DIHYDROERGOTAMINE MESYLATE]
system.name: Fibroblast
Population Apoptotic (%): 47
//
molecule: COc1cc(C(=O)N2CC[C@@H](O)[C@@H](N)C2)cc2nc(-c3cc4ccccc4n3CC3CC3)n(C)c12.Cl
system.name: Fibroblast
Population Apoptotic (%): 60

Request: So what does the record say about Population Apoptotic (%) for Cc1c(Cc2ccc3ccccc3n2)c2cc(F)ccc2n1CC(=O)O ?
Response: 47

Request: So what does the record say about Population Apoptotic (%) for COCCCN1CCC(NC(=O)c2cc(Cl)c(N)c3c2OCC3)CC1 [PRUCALOPRIDE] ?
Response: 72

Request: So what does the record say about Population Apoptotic (%) for C[C@@H]1CC(=O)Nc2cccc(-c3ccc4c(c3)c(-c3cnn(C)c3)nn4C)c2N1 ?
Response: 35

Request: So what does the record say about Population Apoptotic (%) for COc1c(Nc2ccc(S(C)(=O)=O)nc2C)ncnc1OC1CCN(C(=O)OC(C)C)CC1 ?
Response: 37
